# assay-system: human PAD4 (hPAD4) (Homo sapiens (Human), UniProt Q9UM07)
# Sequence (Q9UM07 whole entry): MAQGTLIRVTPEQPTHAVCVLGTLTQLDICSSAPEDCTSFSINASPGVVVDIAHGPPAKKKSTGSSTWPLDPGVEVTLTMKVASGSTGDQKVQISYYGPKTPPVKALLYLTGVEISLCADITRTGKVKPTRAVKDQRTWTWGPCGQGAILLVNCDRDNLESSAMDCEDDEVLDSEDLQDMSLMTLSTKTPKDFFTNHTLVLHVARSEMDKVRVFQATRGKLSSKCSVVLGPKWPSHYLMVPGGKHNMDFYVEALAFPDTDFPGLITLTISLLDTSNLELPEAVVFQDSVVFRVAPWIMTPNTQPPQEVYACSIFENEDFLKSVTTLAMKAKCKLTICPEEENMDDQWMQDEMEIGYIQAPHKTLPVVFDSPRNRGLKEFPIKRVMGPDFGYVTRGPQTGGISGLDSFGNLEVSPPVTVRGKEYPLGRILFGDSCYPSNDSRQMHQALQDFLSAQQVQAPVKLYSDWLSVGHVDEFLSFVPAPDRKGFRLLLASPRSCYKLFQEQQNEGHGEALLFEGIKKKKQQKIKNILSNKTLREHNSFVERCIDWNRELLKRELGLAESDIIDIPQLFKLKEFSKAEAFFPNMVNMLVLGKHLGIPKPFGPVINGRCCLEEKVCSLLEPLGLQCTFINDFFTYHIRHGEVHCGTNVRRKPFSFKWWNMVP
# test-details: RFMS Human PAD4 Functional Assay 1
# run-parameters: RFMS assay 1; 5 nM hPAD4, 250 μM BAEE substrate, 50 μM calcium, 37° C.
quantity-name: log10 IC50 (log10 of the value in nM)

molecule	val
COc1cc(C(=O)N2C[C@H](N)C[C@@H](F)C2)cc2oc(-c3cc4ccc(-c5ccc(C(N)=O)c(Cl)c5)cc4n3CC3CC3)c(C)c12	3.36
COc1cc(C(=O)N2CC3CCC2[C@@H]3N)cc2sc(-c3cc4ccccc4n3CC3CC3)c(C)c12 (stereo partly drawn)	2.20
Cc1c(-c2cc3ccnc(OCC4CNC(=O)C4)c3n2CC2CC2)nn2cc(C(=O)N3C[C@H](N)C[C@@H](F)C3)ccc12 (single isomer, unassigned; isomer 2) [Example 615]	1.85
COc1cc(C(=O)N2CCC[C@@H](N)C2)cn2nc(-c3cc4ccc(-c5ccc(CNS(C)(=O)=O)cc5)cc4n3CC3CC3)c(C)c12	3.06
COc1cc(C(=O)N2C[C@H](N)C[C@@H](F)C2)cn2nc(-c3cc4ccc(N5CC(F)(CO)C5)cc4n3CC3CC3)c(C)c12	3.56
COc1cc(C(=O)N2C[C@H](N)C[C@@H](F)C2)cn2nc(-c3cc4cccc(C5CCN(C(=O)C6CCCCO6)CC5)c4n3CC3CC3)c(C)c12 (single isomer, unassigned) [Example 388]	1.85

====

# pIC50 per entry
# assay-system: human PAD4 (hPAD4) (Homo sapiens (Human), UniProt Q9UM07)
# test-details: RFMS Human PAD4 Functional Assay 1
# run-parameters: RFMS assay 1; 5 nM hPAD4, 250 μM BAEE substrate, 50 μM calcium, 37° C.
pIC50: −log10 of the molar value.

compound	pIC50
COc1cc(C(=O)N2CCC[C@@H](N)C2)cn2nc(-c3cc4cccc(C5CCN(C(=O)C6CC(O)C6)CC5)c4n3CC3CC3)c(C)c12 (single isomer, unassigned) [Example 392]	8.52
Cc1c(-c2cc3ccc(-c4ccc5c(c4)CNC5=O)cc3n2CC2CC2)oc2cc(C(=O)N3CC4CCC3[C@@H]4N)ccc12 (stereo partly drawn) [Example 178]	6.82
Cc1c(-c2cc3ccc(-c4ccc5cn[nH]c5c4F)nc3n2CC2CC2)nn2cc(C(=O)N3CC4CCC3[C@@H]4N)ccc12 (stereo partly drawn) [Example 306]	7.52

====

# assay-system: human PAD4 (hPAD4) (Homo sapiens (Human))
# test-details: RFMS Human PAD4 Functional Assay 1
# Type: biochemical
# run-parameters: RFMS assay 1; 5 nM hPAD4, 250 μM BAEE substrate, 50 μM calcium, 37° C.
pIC50: −log10 of the molar value.
Cut-off 7 on pIC50, inclusive. At or above means YES; below means NO.

smiles-notation	assay-system	answer-label
Cc1c(-c2cc3ccnc(OCCn4ccnc4)c3n2CC2CC2)nn2cc(C(=O)N3C[C@H](N)C[C@@H](F)C3)ccc12	human PAD4 (hPAD4) (Homo sapiens (Human))	YES
Cc1c(-c2cc3ccc(N4CCC(N)CC4)cc3n2CC2CC2)oc2cc(C(=O)N3C[C@H](N)C[C@@H](F)C3)ccc12	human PAD4 (hPAD4) (Homo sapiens (Human))	NO
CO[C@@H](C)C(=O)N1CC(c2cccc3cc(-c4nn5cc(C(=O)N6CCC[C@@H](N)C6)ccc5c4C)n(CC4CC4)c23)C1	human PAD4 (hPAD4) (Homo sapiens (Human))	NO
COCC(=O)N1CCC(c2cccc3cc(-c4nn5cc(C(=O)N6CCC[C@@H](N)C6)ccc5c4C)n(CC4CC4)c23)CC1	human PAD4 (hPAD4) (Homo sapiens (Human))	NO
